ASSAY_METRIC: melting point

Incoming: Consider the molecule COc1ccc(C(=O)c2c(N)sc3c2CCN(C(=O)c2ccc(Cl)cc2)C3)cc1OC . State its measured melting point.
Outgoing: 138 to 140 °C

----------
ASSAY_METRIC: melting point

Please review the entries below; each comes with its answer.
COMPOUND	melting point
Cc1nc(F)c(S(C)(=O)=O)c(F)n1	120 to 123 °C
COC(=O)Nc1cc(Oc2ccc3c(C(=O)Nc4ccc(CN5CCNCC5)c(C(F)(F)F)c4)cccc3c2)ncn1	138 to 148 °C
Cn1c(SCC(=O)C23CC4CC(CC(C4)C2)C3)nnc1C1CC1	96 to 97.5 °C
CC(O)(CCCl)c1ccc(-c2ccc(F)cc2)cc1 (stereo not given)	78 to 79 °C
C=CCN1CCCC1CNC(=O)c1cc(S(=O)(=O)NC)cc2c1OCCO2 (stereo not given)	101 to 102 °C

Incoming: Please report melting point for the following compound: CCN1CCc2sc3ncn(CCCl)c(=O)c3c2C1
Outgoing: 94 to 96 °C

Incoming: Look up and state reported melting point for Nc1ccc2nc(-c3ccc4c(c3)OCCO4)ncc2c1
Outgoing: 179 to 182 °C

Incoming: Item Cc1nn(-c2c(Cl)cc(C(F)(F)F)cc2Cl)c(C)c1-c1nc(C#N)c(C#N)[nH]1 : provide melting point
Outgoing: 80 to 83 °C

Incoming: Supply melting point value. Item: CC(Br)C(=O)NC1=NN(c2cccc(C(F)(F)F)c2)CC1 (stereo not given)
Outgoing: 54 to 56 °C

Incoming: Please list melting point recorded for the compound COc1cc(C2CCN(C[C@@H](C)O)CC2)ccc1Nc1ncc2ccc(-c3ccccc3OC)n2n1
Outgoing: 67 to 74 °C

----------
ASSAY_METRIC: melting point

// solved cases for melting point follow
INPUT_SMILES	melting point
CC(C)(C)c1cc(-c2nc(Cl)nc(Cl)n2)cc(C(C)(C)C)c1O	178 to 179 °C
Clc1cccc(-c2onc3ccc(Br)cc23)c1	163 °C
Cc1cc(N)cnc1Oc1cccc(C(C)(C)C)c1	83 to 84 °C
CCSc1cc(C)nc(SCC)c1NC(=O)CCCCCCSc1nc2cccc(C(F)(F)F)c2o1	127 to 128 °C
CCOC(=O)c1occ(-c2ccccc2)c(=O)c1Br	134 °C

Next item in the queue.
Incoming: Answer with reported melting point of O=c1[nH]ncnc2c1ccc1ncnc12
Outgoing: 266 to 268 °C

----------
ASSAY_METRIC: melting point

Worked examples follow.
MOLECULE	ASSAY_METRIC	RECORDED_MEASUREMENT
Nc1cc(Cl)nc(C(=O)O)c1C(F)F	melting point	149 to 151 °C
CCCc1nc2c(N)nc3cccnc3c2n1CCCCN(OC)C(C)=O	melting point	155 to 156 °C
O=C(Nc1nc(-c2ccco2)c(C(=O)C2CCOCC2)s1)c1ccco1	melting point	196 to 198 °C
Cc1nccn1CC1CCc2c(c3ccccc3n2C)C1NO (stereo unspecified)	melting point	140 to 144 °C
CCOC(=O)Cc1nsc(Nc2ccc(F)c(F)c2)n1	melting point	84 to 90 °C
CC(=O)NC[C@H]1CN(c2ccc(N3CCC(n4nccn4)CC3)c(F)c2)C(=O)O1	melting point	197 °C

Incoming: # return recorded melting point for input Nc1cccc2c1C(Cc1ccnc(F)c1)(Cc1ccnc(F)c1)c1ccccc1-2
Outgoing: 182 to 184 °C

Incoming: Specify measured melting point for CCN1CCN(CCOc2cc3ncc(C#N)c(Nc4cc(OC)c(Cl)cc4Cl)c3cc2OC)CC1 .
Outgoing: 101 to 105 °C

Incoming: Return value of melting point for input COCCOc1ccc(CCNC(=O)/C=C/c2cccs2)cc1S(=O)(=O)NC(=S)NC(C)C , no commentary.
Outgoing: 101 °C

Incoming: Note melting point for the molecule shown: CCCCc1nc2cccc(C(=O)OC)c2n1Cc1ccc(-c2ccccc2-c2n[nH]c(=O)o2)cc1
Outgoing: 204 to 205 °C

Incoming: # return recorded melting point for entry CN(C)C=C(C(=O)c1ccccc1)c1ccccc1
Outgoing: 128 to 133 °C

----------
Below, each entry is listed alongside its reported melting point.

Example cases with answers are listed next.
MOLECULE	RECORDED_MEASUREMENT
O=C(NC(=O)N(SN1CCOCC1)c1ccc(Oc2ccc(C(F)(F)F)cc2Cl)cc1F)c1c(F)cccc1F	77 to 80 °C
CCCN1C(=O)N(c2ccc([N+](=O)[O-])c(C(F)(F)F)c2)C(=O)C1(C)C	102 °C
CS(=O)(=O)Nc1cc(C(O)CNCCCCCCOCC/C=C/c2ccc(F)cc2)ccc1O (stereo not given)	79 to 80 °C
O=C(NCc1ccncc1)c1[nH]c2ccc(Cl)cc2c1S(=O)c1ccccc1 (stereo not given)	233 to 235 °C

Alright, here's another molecule for you.
Incoming: Look up and state reported melting point for Cc1onc(NS(=O)(=O)c2ccccc2-c2ccc(-c3ncccn3)cc2Cn2ccc(C(F)(F)F)n2)c1C
Outgoing: 108 to 114 °C

----------
ASSAY_METRIC: melting point

Incoming: Please report the measured melting point for CCOC(=O)c1cn(-c2ncnn2C)c2cc(F)c(F)cc2c1=O
Outgoing: 230 to 231 °C

Incoming: Specify melting point for CC(N1CCN(C=O)CC1)C(O)(Cn1cncn1)c1ccc(F)cc1F (stereo not given) and stop.
Outgoing: 118 to 120 °C

Incoming: Give the measured melting point for C#CCOc1cc(Oc2cc(Cl)ccc2Cl)ncn1
Outgoing: 87.7 °C

Incoming: Recall and state the measured melting point for O=[N+]([O-])c1cnn(-c2c(Cl)cc(C(F)(F)F)cc2Cl)c1 .
Outgoing: 91 to 97 °C

Incoming: State its melting point for this compound: O=C1NCCC(C(=O)c2ccc(Cc3ccc(F)cc3)o2)=C1O
Outgoing: 166 to 168 °C

----------
ASSAY_METRIC: melting point

Reference set (4 entries):
COMPOUND	melting point
COc1cc(OC)nc(-n2c(S(C)(=O)=O)nc3ccccc32)n1	114 to 117 °C
COc1ccccc1NC(=O)Nc1nc(Nc2ccccc2-c2ccccc2)nc(N(CC(=O)O)Cc2ccc(C)cc2)n1	132 to 145 °C
Cc1cccc(-n2nc3c(c2-c2cc4cnccc4s2)CCC3)n1	146 to 148 °C
CCC(O)c1ccc(-c2ccc(Cl)cc2)cc1 (stereo not given)	114 to 116 °C

Read the next record carefully.
Incoming: Respond only with melting point recorded for COC(=O)c1ccc(NC(=O)c2cc(C(C)C)c(C(C)C)o2)cn1
Outgoing: 186 to 188 °C

----------
// melting point lookup, one value per entry

Sample answers from the record:
COMPOUND	melting point
Cn1cc2c(n1)-c1sccc1N(C(=O)c1ccc(NC(=O)C3CCCCC3)cc1)CC2	240 to 242 °C
NC12CCCC(C1)C1CCC2C1 (stereo not given)	111 to 113 °C
Oc1ccc2cc(-c3noc4ccc(O)cc34)ccc2c1	250 to 252 °C
COc1cc2c(=O)c(Cc3cccnc3)cn3c4ccc(Br)cc4c(c1)c23	150 to 151 °C
NC(=O)c1nccn1C1Cc2cc(F)ccc2C1=O (stereo not given)	221 °C

Incoming: Please look at this compound and report its melting point: Cc1ccc(OCC(=O)O)c(C(=O)NCc2cccc([N+](=O)[O-])c2)c1
Outgoing: 193 to 194 °C

----------
ASSAY_METRIC: melting point

Incoming: # return recorded melting point for entry COC1CCc2c(Nc3ccc(C#N)cc3)ncnc21 (stereo not given)
Outgoing: 167 to 169 °C

Incoming: Complete the entry with melting point for CC12CC(=O)NN=C1c1ccc(N)cc1C2 (stereo not given)
Outgoing: 222 °C

Incoming: For the compound O=C(O)CC1CCCCc2c1c1cc(F)ccc1n2Cc1ccc(Cl)cc1 (stereo not given) , report melting point.
Outgoing: 138 to 139 °C

Incoming: Identify the reported melting point for the following entry. O=C1COc2cc(Nc3ccc(O)cc3)ccc2N1
Outgoing: 270 to 275 °C

Incoming: Read the entry CCCCCCCCCCCCCCCCCC(=O)ON1C(=O)c2ccccc2C1=O and write its reported melting point.
Outgoing: 76 to 80 °C

Incoming: Note melting point for the compound shown: COc1cc2c(cc1C(F)(F)F)N(C(=O)Nc1ccc(CN(C)C)cc1)CC2
Outgoing: 169 to 170 °C

Incoming: Indicate the recorded melting point value for this compound: Cc1nc(C(=O)NCCO[N+](=O)[O-])c(C)s1
Outgoing: 114 to 116 °C

Incoming: Entry COP(=O)(OC)c1cc(O)c2c(=O)cc(-c3ccccc3)oc2c1 needs its melting point filled in; supply it.
Outgoing: 219 °C

Incoming: Hello, please tell me recorded melting point for this one: COc1ccccc1NC(=O)Nc1ccc(CC(=O)NC(CC(C)C)c2ncc(CCC(=O)O)s2)cc1 (stereo not given)
Outgoing: 197 to 198 °C

Incoming: For the compound CC(C)(C)[Si](C)(C)Oc1ccc2c(c1)OC(O)c1c-2ccc2cc(O[Si](C)(C)C(C)(C)C)ccc12 (stereo not given) , give its measured melting point value.
Outgoing: 188 to 190 °C
